Hello, the source for this data is ChEMBL document CHEMBL4513216, in case you need it.

# Tested on: Plasmodium berghei
# assay_overview: Screen against P. berghei liver stage (PbLuc), transformed with Luciferase, at 10uM
# Type: functional, HepG2
# measurement_setup: tested at 10 uM
About 8,600 (12%) of roughly 69,000 compounds showed an effect of 50% or more. The sample as a whole holds a higher share of strong results than the screen did.
readout: INHIBITION (%)

[[record]]
compound = "COc1c(C2CCCN2C(=O)c2ccnc(C)n2)c(C)nn1C (stereo unspecified)"
value_measured = 3.73

[[record]]
compound = "CC(C)c1n[nH]c(C2CN(C(=O)COCC(F)(F)F)CCO2)n1 (stereo unspecified)"
value_measured = 31.6

[[record]]
compound = "COc1ccc(Cl)cc1-n1c(COC(C)C)n[nH]c1=O"
value_measured = 26.4

[[record]]
compound = "O=c1[nH]c(NC2CCCC2)nc2nccc(-c3cccs3)c12"
value_measured = 52.2

[[record]]
compound = "O=c1[nH]c(NC2CCCC2)nc2nccc(-c3ccco3)c12"
value_measured = -37.9

[[record]]
compound = "CN(Cc1nnc(C2CC2)o1)C1CCCN(c2cccnn2)C1 (stereo unspecified)"
value_measured = -9.76


---

# System: Plasmodium berghei
# assay_overview: Screen against P. berghei liver stage (PbLuc), transformed with Luciferase, at 10uM
# Type: functional, HepG2
# measurement_setup: tested at 10 uM
Screen size: about 69,000 compounds; about 8,600 (12%) showed an effect of 50% or more. Shown is part of a subset that was picked to be rich in strong results.
Bucketed by reported INHIBITION, buckets being bin A (below 20%), bin B (20% to below 40%), bin C (40% or more)

[[record]]
compound = "Cn1cccc1C(=O)N1CC[C@H]2C[C@@H](c3ccncn3)O[C@@H]2C1"
class = "bin C"

[[record]]
compound = "Cc1nn(C)c(N(C)C)c1CNCCC(=O)NC1CCCCC1"
class = "bin C"

[[record]]
compound = "c1csc(CN2CCc3ncnc(C4CCOC4)c3CC2)c1 (stereo not drawn)"
class = "bin B"

[[record]]
compound = "COc1c(CNCc2ccc(S(C)(=O)=O)cc2)c(C)nn1C"
class = "bin A"

[[record]]
compound = "CCc1nc(N2CCCN(c3ncccn3)CC2)c2cnn(C)c2n1"
class = "bin B"

[[record]]
compound = "COCc1ccc(CNCc2c(C)nn(C)c2N(C)C)cc1"
class = "bin B"

[[record]]
compound = "COc1ccccc1N1CCN(Cc2cnc3c(c2)c(C)nn3C)CC1"
class = "bin B"

[[record]]
compound = "Cc1ccsc1[C@@H]1CCN(C(=O)c2cc3ccccc3[nH]2)C[C@H]1O"
class = "bin C"

[[record]]
compound = "CC(C)c1nn(C)c(N(C)C)c1CNCCC(=O)NC1CCCC1"
class = "bin B"

[[record]]
compound = "CC(=O)N1Cc2ccccc2OC2(CCN(C(=O)C3CC3)CC2)C1"
class = "bin B"

[[record]]
compound = "Cc1nn(C)c(N(C)C)c1CNCc1ccc(C(=O)N(C)C)cc1"
class = "bin A"

[[record]]
compound = "COc1c(CNCc2ccc(C(=O)N3CCCC3)cc2)c(C)nn1C"
class = "bin C"

[[record]]
compound = "COc1cccc(CCC2CCCCN2)c1 (stereo not drawn)"
class = "bin B"

[[record]]
compound = "CCSCc1ccc(C(=O)N2CCCN(CC(N)=O)CC2)cc1"
class = "bin A"

[[record]]
compound = "Cc1ccsc1[C@@H]1CCN(C(=O)CCc2nc3ccccc3[nH]2)C[C@H]1O"
class = "bin A"

[[record]]
compound = "Cc1cc(C)n(C2CN(c3nc(N)nc4c3CCCC4)C2)n1"
class = "bin B"

[[record]]
compound = "CCNC(=O)c1ccc(CNCc2c(C)nn(C)c2N(C)C)cc1"
class = "bin C"

[[record]]
compound = "Cc1ccsc1[C@@H]1CCN(C(=O)c2ccc(-c3cc[nH]n3)cc2)C[C@H]1O"
class = "bin A"

[[record]]
compound = "N#Cc1ccc(CNc2cccc(C(=O)N3CCOCC3)c2)cc1"
class = "bin B"

[[record]]
compound = "COc1c(CNCc2ccc(C(=O)N(C)C(C)C)cc2)c(C)nn1C"
class = "bin C"

[[record]]
compound = "COc1c(CNCc2ccc(CN(C)C)cc2)c(C)nn1C"
class = "bin A"

[[record]]
compound = "CCn1cc(CN2CCCN(C(=O)c3ccc(C)nc3)CC2)cn1"
class = "bin A"

[[record]]
compound = "CCc1nc(N2CCN(c3ncccc3C#N)CC2)c2cnn(C)c2n1"
class = "bin C"


---

Attribute: INHIBITION
# Tested on: Plasmodium berghei
# assay_overview: Screen against P. berghei liver stage (PbLuc), transformed with Luciferase, at 10uM
# Type: functional, HepG2
# measurement_setup: tested at 10 uM
Hit rate of the full screen: of about 69,000 compounds, about 8,600 (12%) showed an effect of 50% or more. Many of the other results were omitted from the sample, so strong results are more common in it than they were.
readout: INHIBITION (%)

[[record]]
compound = "CCOC(=O)N1CCC(OC)c2ccccc2N(C)C(=O)C1 (stereo unspecified)"
value_measured = 46.4

[[record]]
compound = "CC(C)NC(=O)N1CC[C@@H](N(C)C)[C@@H]1Cc1ccccc1"
value_measured = 0.804

[[record]]
compound = "Cc1ccc(CN(Cc2ncc[nH]2)C2CC(C)(C)NC(C)(C)C2)o1"
value_measured = 91.6

[[record]]
compound = "O=C(NCCC1CC1)NCc1cccc(-n2ccnc2)c1"
value_measured = 21.6

[[record]]
compound = "Cc1nccc(C(=O)N2CCCC2c2noc(C(C)C)n2)n1 (stereo unspecified)"
value_measured = 22.6

[[record]]
compound = "Cn1c(C(=O)NC(Cc2ccsc2)c2cccnc2)cc(=O)n(C)c1=O (stereo unspecified)"
value_measured = -12.3


---

# Tested on: Plasmodium berghei
# assay_overview: Screen against P. berghei liver stage (PbLuc), transformed with Luciferase, at 10uM
# Type: functional, HepG2
# measurement_setup: tested at 10 uM
In all, about 69,000 compounds went through this assay and about 8,600 (12%) showed an effect of 50% or more. Only a selection was taken, and strong results are over-represented in it overall.
Attribute: INHIBITION
readout: INHIBITION (%)

[[record]]
compound = "CCn1cnnc1C1CCN(C(=O)c2cc3c(s2)CCC3)CC1"
system_under_test = "Plasmodium berghei"
value_measured = 61.3

[[record]]
compound = "Cc1c2ncn(CC(=O)c3ccccc3)c(=O)c2nn1C"
system_under_test = "Plasmodium berghei"
value_measured = 14.9

[[record]]
compound = "CN(CCC#N)C(=O)Cn1cnc2c(Br)cccc2c1=O"
system_under_test = "Plasmodium berghei"
value_measured = 11.9

[[record]]
compound = "O=C(CN1C(=O)c2ccccc2CS1(=O)=O)c1ccc(Cl)cc1"
system_under_test = "Plasmodium berghei"
value_measured = 55.4

[[record]]
compound = "Cn1ncc(C(=O)O)c1C(=O)Nc1nc2ccccc2s1"
system_under_test = "Plasmodium berghei"
value_measured = 45.4

[[record]]
compound = "CCc1n[nH]c(C2CN(C(=O)c3ccc4c(c3)CCCC4)CCO2)n1 (centres undefined)"
system_under_test = "Plasmodium berghei"
value_measured = -43.6

[[record]]
compound = "CN(Cc1cscn1)C1CCCN(c2cccnn2)C1 (centres undefined)"
system_under_test = "Plasmodium berghei"
value_measured = 15.5

[[record]]
compound = "O=C(CN1C(=O)c2ccccc2CS1(=O)=O)c1ccccc1"
system_under_test = "Plasmodium berghei"
value_measured = 74.2

[[record]]
compound = "Cc1cnn(CCNCC(=O)NC(c2ccccc2)c2ccccc2)c1"
system_under_test = "Plasmodium berghei"
value_measured = -18.9

[[record]]
compound = "CN(Cc1cccs1)C(=O)CS(=O)(=O)Cc1ccc(Cl)c(Cl)c1"
system_under_test = "Plasmodium berghei"
value_measured = 62.2

[[record]]
compound = "CCc1nnc(Nc2cc(C)nc(C3CCN(c4ncccn4)C3)n2)s1 (centres undefined)"
system_under_test = "Plasmodium berghei"
value_measured = -11.4

[[record]]
compound = "Cc1cccc(SC2CCN(C(=O)CCCn3cnnn3)CC2)c1"
system_under_test = "Plasmodium berghei"
value_measured = 43.8

[[record]]
compound = "CCn1cnnc1C1CCN(C(=O)c2cc3c(s2)CCCC3)CC1"
system_under_test = "Plasmodium berghei"
value_measured = 13.3

[[record]]
compound = "Cc1nc(C)n(CC2CCCN(Cc3cccc4c3OCCO4)C2)n1 (centres undefined)"
system_under_test = "Plasmodium berghei"
value_measured = 38.8

[[record]]
compound = "Cc1ccc(OCCC(=O)N2CCC(c3nncn3C)CC2)c(C)c1"
system_under_test = "Plasmodium berghei"
value_measured = -17

[[record]]
compound = "Cc1ccccc1OCCC(=O)N1CCC(c2nncn2C)CC1"
system_under_test = "Plasmodium berghei"
value_measured = -4.94

[[record]]
compound = "CCNC(=O)C1CCCN(c2ccc3ccc(F)cc3n2)C1 (centres undefined)"
system_under_test = "Plasmodium berghei"
value_measured = 20.8

[[record]]
compound = "CNC(=O)C1CCCN(c2nc3c(-c4ccccc4)csc3c(=O)[nH]2)C1 (centres undefined)"
system_under_test = "Plasmodium berghei"
value_measured = 11.6

[[record]]
compound = "Cn1nc(N2CCCC(C(=O)Nc3nc4ccccc4s3)C2)ccc1=O (centres undefined)"
system_under_test = "Plasmodium berghei"
value_measured = 82.2

[[record]]
compound = "Cc1nn(C)cc1-c1cncn1CCc1ccc2c(c1)OCCO2"
system_under_test = "Plasmodium berghei"
value_measured = 27.6

[[record]]
compound = "Cc1cc(-c2ccccc2C(=O)O)nc(C2CCCN(C)C2)n1 (centres undefined)"
system_under_test = "Plasmodium berghei"
value_measured = 30.8

[[record]]
compound = "COc1ncc(CN(CCCN2CCOCC2)Cc2ccc(C)o2)cn1"
system_under_test = "Plasmodium berghei"
value_measured = 30.4

[[record]]
compound = "Cn1nc(N2CCCC(C(=O)Nc3nc4ccccc4[nH]3)C2)ccc1=O (centres undefined)"
system_under_test = "Plasmodium berghei"
value_measured = 51

[[record]]
compound = "CCn1cnnc1C1CCN(C(=O)COc2ccccc2)CC1"
system_under_test = "Plasmodium berghei"
value_measured = 53

